# target.desc: Prp43 F357A (UniProt P53131 1-767, F357A)
# experiment.summary: filter binding
experimental.endpoint: Kd (nM)
Entry rule: numbers only, all in nM.

Lookup: Recorded Kd for GACGGGCUGUUGGUGAUGGAC (ssRNA) [21-mer ssRNA] , please?
Found: 6
